tested on: Plasmodium falciparum; experiment: Calibr Malaria Delayed Death Assay SOP; assay type: functional, organism-based; parameters: scale not given: in the data most compounds retested in dose-response had high values; details: concentration 4.99e-06 (unit not given; other assays of the set use mol/L)
About 1,200 (3.2%) of roughly 38,000 compounds showed an effect of 50% or more. The median lay at about -58%. What follows is part of a selection rich in strong results, with near analogues and random picks from the rest.
Listing of entries alongside the reported Percent Effect.
Provide only the numeric value, understood in %.

Consider the following illustrative entries.
{"Molecule": "COC(=O)CC(C1=Cc2ccccc2OC1)c1oc(C)cc(=O)c1O (stereo unspecified)", "Readout Value": -54.1}
{"Molecule": "CC(C(=O)Nc1cccc(Cl)c1SC(F)F)S(C)(=O)=O (stereo unspecified)", "Readout Value": -87.5}
{"Molecule": "Cc1cc(C)cc(OCCN(C)C(=O)NC(C)c2nncn2C)c1 (stereo unspecified)", "Readout Value": -106.2}
{"Molecule": "CCCc1noc(CN2CCC(C(=O)Nc3cnn(CC)c3)CC2)n1", "Readout Value": -105}
{"Molecule": "O=C(O)C(F)(F)F.O=C1COC2(CCN(c3ncccn3)CC2)CN1Cc1ccccn1", "Readout Value": -77.45}

Request: # returns recorded Percent Effect (system: Plasmodium falciparum) for C=C/C=c1\c(=C/C)oc2c(NCc3ccccc3)ncnc12
Result: -45.75

Request: Please do the same for Cc1cc(C)n(-c2cncc(NCCC(=O)NC(C)C)n2)n1 as well.
Result: -25.6

Request: Consider next the molecule COC[C@@H]1CCC[C@]12CN(S(=O)(=O)c1cn(C)cn1)CCO2 in the same way.
Result: -139.4

Request: Also need COc1cccc2c1ccn2CCC(=O)Nc1c2c(nn1C)CSC2 , thanks.
Result: 27.59

Request: # iterate: CCn1cc(CN2CCCN(C(=O)CCN3CCCC3=O)CC2)cn1
Result: -110.7

Request: Do the same for CS(=O)(=O)NCc1cnc2n1CCN(Cc1ccco1)CC2.O=C(O)C(F)(F)F please
Result: -61.12

* * *

// reported Percent Effect for each item listed
test system: Plasmodium falciparum; assay: Calibr Malaria Delayed Death Assay SOP; type: functional, organism-based; design: scale not given: in the data most compounds retested in dose-response had high values; conditions: concentration 4.99e-06 (unit not given; other assays of the set use mol/L)
About 1,200 (3.2%) of roughly 38,000 compounds showed an effect of 50% or more. The median lay at about -58%. The entries come from a sample that favours strong results as a whole.
Just the number in %, nothing appended.

The following compounds have reported results that may help.
{"Compound": "Cc1nn(C)c2nc(NCCCN3CCCC(CO)C3)sc12 (configuration not stated)", "Unit String": "%", "Percent Effect": -120}
{"Compound": "COc1ccsc1C(=O)NCCN1CCOCC1", "Unit String": "%", "Percent Effect": -115.8}
{"Compound": "COCCN(C)C[C@@H]1CN(C(=O)NC2CCCCC2)C[C@@H]1CO", "Unit String": "%", "Percent Effect": -45.61}
{"Compound": "CCN1CC(CN2CCOCC2)Oc2ncccc2C1=O (configuration not stated)", "Unit String": "%", "Percent Effect": -121.7}
{"Compound": "CN(C)CCNC(=O)c1ccn(-c2ccc3ccccn23)n1.O=C(O)C(F)(F)F", "Unit String": "%", "Percent Effect": 83.48}
{"Compound": "Cc1nc(C2CCCN2C(=O)CCCn2cncn2)no1 (configuration not stated)", "Unit String": "%", "Percent Effect": -14.54}
{"Compound": "CC(=O)N1CCCN(C(=O)c2cnn(C(C)(C)C)c2C)CC1", "Unit String": "%", "Percent Effect": -71.74}
{"Compound": "Cc1nccn1-c1ccc(=O)n(CCNC(=O)c2ccccn2)n1", "Unit String": "%", "Percent Effect": -133.3}

With those in mind, consider the next compound.
Request: GET /values?readout=Percent Effect&item= CCOC(=O)C1(CCOC)CCCN(Cc2nccn2CC)C1 (configuration not stated)
Result: 6.985

* * *

test system: Plasmodium falciparum; test: Calibr Malaria Delayed Death Assay SOP; assay type: functional, organism-based; design: scale not given: in the data most compounds retested in dose-response had high values; settings: concentration 4.99e-06 (unit not given; other assays of the set use mol/L)
Screen size: about 38,000 compounds; about 1,200 (3.2%) showed an effect of 50% or more. The median lay at about -58%. What follows is part of a selection rich in strong results, with near analogues and random picks from the rest.
Assign labels as follows, please: Fulfilled for Percent Effect below -30%; Not fulfilled for Percent Effect equal to or exceeding -30%.

{"Molecule": "CCC1CN(C(=O)c2ccccc2C(C)=O)CCN1C(C)C (configuration not stated)", "Assigned Label": "Fulfilled"}
{"Molecule": "O=C(O)CCC(=O)N1CCC(c2noc3cc(F)ccc23)CC1", "Assigned Label": "Fulfilled"}
{"Molecule": "COCCNC(=O)c1ccc2c(=O)n3c(nc2c1)CCCCCC3", "Assigned Label": "Fulfilled"}
{"Molecule": "O=C(NC1CCN(CC2CC2)C1)c1ccc(N2CCC(O)CC2)cc1 (configuration not stated)", "Assigned Label": "Not fulfilled"}
{"Molecule": "Cc1cc(C(=O)Nc2cnn(CC(F)(F)F)c2)nc(N2CCOCC2)n1", "Assigned Label": "Fulfilled"}

Request: For O=C(c1ccc(F)c(Br)c1)N1CCCN2CCCC2C1 (configuration not stated) , is the recorded Percent Effect below the cut-off of -30%?
Result: Not fulfilled

* * *

tested on: Plasmodium falciparum; test: Calibr Malaria Delayed Death Assay SOP; type: functional, organism-based; set-up: scale not given: in the data most compounds retested in dose-response had high values; details: concentration 4.99e-06 (unit not given; other assays of the set use mol/L)
Screen size: about 38,000 compounds; about 1,200 (3.2%) showed an effect of 50% or more. The median lay at about -58%. What follows is part of a selection rich in strong results, with near analogues and random picks from the rest.
Quantity Measured: Percent Effect (%)
Express the result in % but write the number alone.

Observe how each entry below is paired with its result.
{"Molecule": "O=C1NCCCC12CCN(S(=O)(=O)N1CCOCC1)C2 (stereo unspecified)", "Unit String": "%", "Percent Effect": -32.12}
{"Molecule": "CSc1ccc2c(C)cc(N[C@@H](C)CO)nc2c1", "Unit String": "%", "Percent Effect": 13.21}
{"Molecule": "Cc1ccc(Sc2ccc(CN3CCC4(CCCNC4=O)C3)o2)cc1 (stereo unspecified)", "Unit String": "%", "Percent Effect": 71.68}
{"Molecule": "Cc1ccc(CN2CCC3(CC2)C(=O)NCCN3CC2CC2)o1", "Unit String": "%", "Percent Effect": -112.7}
{"Molecule": "O=C1NCCCC12CCN(Cc1ccc(SC3CCCCC3)o1)C2 (stereo unspecified)", "Unit String": "%", "Percent Effect": 54.2}

Please turn your attention to the following entry.
Request: Which Percent Effect is listed for COc1cccc(OC)c1-c1ccnc2cc(CC(=O)N(C)C)nn12 ?
Result: -114.9

* * *

Recorded Percent Effect for the following molecules
tested on: Plasmodium falciparum; assay: Calibr Malaria Delayed Death Assay SOP; type: functional, organism-based; design: scale not given: in the data most compounds retested in dose-response had high values; details: concentration 4.99e-06 (unit not given; other assays of the set use mol/L)
Out of some 38,000 compounds screened, about 1,200 (3.2%) showed an effect of 50% or more. The median lay at about -58%. For the sample, strong results were picked, then their nearest neighbours and some compounds at random.
Answer with the number, then the unit.

Here is how some molecules turned out for Percent Effect.
{"Molecule": "CCN1CCCC(O)(CN(C)Cc2ccccc2F)C1 (stereo not given)", "System Tested": "Plasmodium falciparum", "Quantity Measured": "Percent Effect", "Readout Value": "56.49%"}
{"Molecule": "Cc1cnc(N2CCC3(CC2)CN(Cc2cccs2)CCO3)nc1.O=C(O)C(F)(F)F.O=C(O)C(F)(F)F", "System Tested": "Plasmodium falciparum", "Quantity Measured": "Percent Effect", "Readout Value": "-40.39%"}
{"Molecule": "CC(C)OCCN1CCN(c2ccc(Cl)cn2)CC1", "System Tested": "Plasmodium falciparum", "Quantity Measured": "Percent Effect", "Readout Value": "-78.08%"}

Request: // Percent Effect lookup, key: COc1ccc(-c2ccc(C(=O)N3CCC[C@@H]3CO)o2)cc1
Result: -98.07%

Request: Likewise for Cc1c[nH]c(CN2CCOC(c3ccc(Cl)c(Cl)c3)C2)c(C)c1=O (stereo not given) ?
Result: -31.43%

* * *

test system: Plasmodium falciparum; test: Calibr Malaria Delayed Death Assay SOP; type: functional, organism-based; set-up: scale not given: in the data most compounds retested in dose-response had high values; details: concentration 4.99e-06 (unit not given; other assays of the set use mol/L)
The campaign covered roughly 38,000 compounds. About 1,200 (3.2%) showed an effect of 50% or more. The median lay at about -58%. The entries come from a sample that favours strong results as a whole.
Each entry below carries its reported Percent Effect.
Provide only the numeric value, understood in %.

Guide cases for Percent Effect, answers given:
{"Compound": "COC(=O)CC(c1ccc(O)c(Cl)c1)c1oc(C)cc(=O)c1O (configuration not stated)", "System Tested": "Plasmodium falciparum", "Percent Effect, %": -28.31}
{"Compound": "Cc1cc(CS(=O)(=O)NC2CCCCC2)on1", "System Tested": "Plasmodium falciparum", "Percent Effect, %": -56.68}
{"Compound": "O=C(C1CCCC1)N1CCC(C2CCN(Cc3ccc(Cl)cc3)C2)CC1 (configuration not stated)", "System Tested": "Plasmodium falciparum", "Percent Effect, %": 62.77}
{"Compound": "O=C(C1CCC1)N1CCC(C(=O)N2CCC(c3ccc(F)cc3)C2)CC1 (configuration not stated)", "System Tested": "Plasmodium falciparum", "Percent Effect, %": -81.93}
{"Compound": "CCCc1cc(CNC(=O)Cc2cc(C)no2)on1", "System Tested": "Plasmodium falciparum", "Percent Effect, %": -176}
{"Compound": "CCS(=O)(=O)CC(=O)NCC1(c2c(F)cccc2F)CCCC1", "System Tested": "Plasmodium falciparum", "Percent Effect, %": -98.46}
{"Compound": "COc1ccc(C2(NC(=O)c3ccc(=O)n(C)n3)CCCC2)cc1", "System Tested": "Plasmodium falciparum", "Percent Effect, %": -78.19}
{"Compound": "Cc1nc(C)n(CC2CN(CCCOc3ccccc3)CCO2)n1 (configuration not stated)", "System Tested": "Plasmodium falciparum", "Percent Effect, %": -31.23}
{"Compound": "O=C(N1CCSCC1)C1(O)Cc2ccccc2C1", "System Tested": "Plasmodium falciparum", "Percent Effect, %": -49.25}
{"Compound": "O=C(C1CCC1)N1CCC(C2CCN(Cc3ccc(Cl)cc3)C2)CC1 (configuration not stated)", "System Tested": "Plasmodium falciparum", "Percent Effect, %": 64.14}

Request: Quick one: Percent Effect for Cl.Clc1cccnc1OC1CCNCC1 ?
Result: 7.245

Request: Try this compound next: CCC[C@H]1CN(c2nc(CO)cs2)C[C@@H]1NC(=O)C1(COC)CC1
Result: 71.28
